System: isolated heart
Assay: Experiment 2-2 Activity onto the isolated heart (with duration)
Parameters: species or system Japanese white rabbit
Details: Oryctolagus cuniculus; 3 μg/heart; read-out: Coronary perfusion Increase
MEASURED_METRIC: activation at 3 µg/heart (%)
Give just the numeric value; % need not be written.

Need activation at 3 µg/heart of CCCCCCCCOC(=O)C1=C(C)NC(C)=C(C(=O)NC2CC2)C1c1ccccc1[N+](=O)[O-] (centres unmarked) , thanks.
39

Need activation at 3 µg/heart of CC1=C(C(=O)NC2CC2)C(c2ccccc2[N+](=O)[O-])C(C(=O)OCC(C)C)=C(C)N1 (centres unmarked) , thanks.
10

Need activation at 3 µg/heart of CCCCOC(=O)C1=C(C)NC(C)=C(C(=O)NC2CC2)C1c1ccccc1[N+](=O)[O-] (centres unmarked) , thanks.
20

Need activation at 3 µg/heart of CC1=C(C(=O)NC2CC2)C(c2ccccc2[N+](=O)[O-])C(C(=O)OC(C)C)=C(C)N1 (centres unmarked) , thanks.
15

Need activation at 3 µg/heart of CCOC(=O)C1=C(C)NC(C)=C(C(=O)NC2CC2)C1c1ccccc1[N+](=O)[O-] (centres unmarked) , thanks.
35

Need activation at 3 µg/heart of CCCCCOC(=O)C1=C(C)NC(C)=C(C(=O)NC2CC2)C1c1ccccc1[N+](=O)[O-] (centres unmarked) , thanks.
20

Need activation at 3 µg/heart of CCCCCCCOC(=O)C1=C(C)NC(C)=C(C(=O)NC2CC2)C1c1ccccc1[N+](=O)[O-] (centres unmarked) , thanks.
15

Need activation at 3 µg/heart of CC1=C(C(=O)NC2CC2)C(c2ccccc2[N+](=O)[O-])C(C(=O)OCCC(C)C)=C(C)N1 (centres unmarked) , thanks.
15

====

System: Spontaneously hypertensive male rats
Experiment: Experiment 1-1 Hypotensive activity (oral, conscious spontaneously hypertensive rats)
Format: in vivo, rat
Settings: 10 mg/kg oral
MEASURED_METRIC: Time until reaching to max. hypotension (min)
Give just the numeric value; min need not be written.

Which Time until reaching to max. hypotension is reported with Spontaneously hypertensive male rats for this entry: COC(=O)C1=C(C)NC(C)=C(C(=O)OC)C1c1ccccc1[N+](=O)[O-] [Compound A, reference compound] ?
15

Which Time until reaching to max. hypotension is reported with Spontaneously hypertensive male rats for this entry: CCCCCCCCCOC(=O)C1=C(C)NC(C)=C(C(=O)NC(C)C)C1c1ccccc1[N+](=O)[O-] (stereo not drawn) [Example 3] ?
30

Which Time until reaching to max. hypotension is reported with Spontaneously hypertensive male rats for this entry: CCCOC(=O)C1=C(C)NC(C)=C(C(=O)NC(C)C)C1c1ccccc1[N+](=O)[O-] (stereo not drawn) [Example 44] ?
15

Which Time until reaching to max. hypotension is reported with Spontaneously hypertensive male rats for this entry: CC1=C(C(=O)NC(C)C)C(c2ccccc2[N+](=O)[O-])C(C(=O)OC(C)C)=C(C)N1 (stereo not drawn) [Example 45] ?
15

Which Time until reaching to max. hypotension is reported with Spontaneously hypertensive male rats for this entry: CCOC(=O)C1=C(C)NC(C)=C(C(=O)N(C)C)C1c1cccc([N+](=O)[O-])c1 (stereo not drawn) [E, reference compound] ?
15

Which Time until reaching to max. hypotension is reported with Spontaneously hypertensive male rats for this entry: COC(=O)C1=C(C)NC(C)=C(C(=O)NC(C)C)C1c1ccccc1[N+](=O)[O-] (stereo not drawn) [Example 5] ?
15

Which Time until reaching to max. hypotension is reported with Spontaneously hypertensive male rats for this entry: COC(=O)C1=C(C)NC(C)=C(C(=O)OCCN(C)Cc2ccccc2)C1c1cccc([N+](=O)[O-])c1.Cl (stereo not drawn) [Compound B, reference compound] ?
15

Which Time until reaching to max. hypotension is reported with Spontaneously hypertensive male rats for this entry: CCCCCCOC(=O)C1=C(C)NC(C)=C(C(=O)NC(C)C)C1c1ccccc1[N+](=O)[O-] (stereo not drawn) [Example 7] ?
30

Which Time until reaching to max. hypotension is reported with Spontaneously hypertensive male rats for this entry: CCCCOC(=O)C1=C(C)NC(C)=C(C(=O)NC(C)C)C1c1cccc([N+](=O)[O-])c1 (stereo not drawn) [Example 64] ?
30

Which Time until reaching to max. hypotension is reported with Spontaneously hypertensive male rats for this entry: COC(=O)C1=C(C)NC(C)=C(C(N)=O)C1c1ccccc1[N+](=O)[O-] (stereo not drawn) [C, reference compound] ?
15

Which Time until reaching to max. hypotension is reported with Spontaneously hypertensive male rats for this entry: CC1=C(C(=O)NC(C)C)C(c2cccc([N+](=O)[O-])c2)C(C(=O)OCC(C)C)=C(C)N1 (stereo not drawn) [Example 65] ?
30

Which Time until reaching to max. hypotension is reported with Spontaneously hypertensive male rats for this entry: CC1=C(C(=O)NC(C)C)C(c2cccc([N+](=O)[O-])c2)C(C(=O)OC(C)C)=C(C)N1 (stereo not drawn) [Example 63] ?
15

Which Time until reaching to max. hypotension is reported with Spontaneously hypertensive male rats for this entry: CCCCOC(=O)C1=C(C)NC(C)=C(C(=O)NC(C)C)C1c1ccccc1[N+](=O)[O-] (stereo not drawn) [Example 6] ?
15

Which Time until reaching to max. hypotension is reported with Spontaneously hypertensive male rats for this entry: CCCCOC(=O)C1=C(C)NC(C)=C(C(=O)NCCC)C1c1cccc([N+](=O)[O-])c1 (stereo not drawn) [Example 68] ?
15

Which Time until reaching to max. hypotension is reported with Spontaneously hypertensive male rats for this entry: CCCCCOC(=O)C1=C(C)NC(C)=C(C(=O)NC(C)C)C1c1ccccc1[N+](=O)[O-] (stereo not drawn) [Example 8] ?
15

Which Time until reaching to max. hypotension is reported with Spontaneously hypertensive male rats for this entry: CC1=C(C(=O)NC(C)C)C(c2ccccc2[N+](=O)[O-])C(C(=O)OCCC(C)C)=C(C)N1 (stereo not drawn) [Example 47] ?
30

Which Time until reaching to max. hypotension is reported with Spontaneously hypertensive male rats for this entry: CCOC(=O)C1=C(C)NC(C)=C(C(=O)NC(C)C)C1c1ccccc1[N+](=O)[O-] (stereo not drawn) [Example 43] ?
15

Which Time until reaching to max. hypotension is reported with Spontaneously hypertensive male rats for this entry: CC1=C(C(=O)NC(C)C)C(c2ccccc2[N+](=O)[O-])C(C(=O)OCCCC(C)C)=C(C)N1 (stereo not drawn) [Example 51] ?
30

Which Time until reaching to max. hypotension is reported with Spontaneously hypertensive male rats for this entry: CC1=C(C(=O)NC(C)C)C(c2ccccc2[N+](=O)[O-])C(C(=O)OCC(C)C)=C(C)N1 (stereo not drawn) [Example 46] ?
15

Which Time until reaching to max. hypotension is reported with Spontaneously hypertensive male rats for this entry: CCCCCCCCCCOC(=O)C1=C(C)NC(C)=C(C(=O)NC(C)C)C1c1ccccc1[N+](=O)[O-] (stereo not drawn) [Example 52] ?
15

Which Time until reaching to max. hypotension is reported with Spontaneously hypertensive male rats for this entry: CCCCCCCOC(=O)C1=C(C)NC(C)=C(C(=O)NC(C)C)C1c1ccccc1[N+](=O)[O-] (stereo not drawn) [Example 1] ?
30

Measured values drawn from patent US4874773A for this set.
